molecular target: Growth factor receptor-bound protein 2 (Homo sapiens, UniProt P62993); assay: In vitro Growth factor receptor bound protein 2-binding affinity in surface plasmon resonance (SPR) method
Sequence (P62993 whole entry): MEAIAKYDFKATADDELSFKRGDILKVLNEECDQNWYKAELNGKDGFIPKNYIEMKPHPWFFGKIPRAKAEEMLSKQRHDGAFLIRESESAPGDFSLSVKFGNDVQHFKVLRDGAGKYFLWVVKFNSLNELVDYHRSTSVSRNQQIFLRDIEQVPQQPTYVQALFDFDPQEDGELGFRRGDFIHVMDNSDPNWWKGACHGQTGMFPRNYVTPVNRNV
reported.endpoint: IC50 (nM)
Give the number; nM is assumed, so skip it.

Entry NC(=O)C[C@@H]1NC(=O)C2(CCCCC2)NC(=O)[C@@H](CC(=O)O)[C@@H](c2ccc(C(C(=O)[O-])C(=O)[O-])cc2)/C=C/C[C@@H](Cc2cccc3ccccc23)CNC1=O.[Na+].[Na+] ; IC50 = 12.1
